Recorded values, source paper PMC5612656.

assay: Plasma drug levels after P4-P16 dosing; conditions: FVB/N background, mouse, ip
Known concentration at 12 h of a selection of molecules

1) N#Cc1cc(F)cc(OCc2cccc3nc(N)nc(N)c23)c1    0.184 µM

Prompt line: Which concentration at 12 h is reported for this molecule? Nc1nc(N)c2c(OCC3CCN(Cc4c(Cl)cccc4Cl)CC3)cccc2n1
Response line: 0.00424 µM

====

tested on: Renilla luciferase driven by the CMV promoter; assay: Reporter gene assay, CMV-driven Renilla luciferase; format: cell-based; conditions: 24 hrs
MEASURE_NAME: effect on CMV-driven Renilla luciferase activity

1. Nc1nc(N)c2c(OCC3CCN(Cc4c(Cl)cccc4Cl)CC3)cccc2n1 [RG3039]    strong effect
2. CCN1CCN(c2ccc3cc(-c4cn5cc(C)nc(C)c5n4)c(=O)oc3c2)C[C@@H]1C [SMN-C2]    no effect
3. Cc1cc(OCC2CCN(Cc3c(Cl)cccc3Cl)CC2)c2c(N)nc(N)nc2c1 [PF-06802336]    no effect
4. Nc1nc(N)c2c(OCC3CCN(Cc4ccccc4F)CC3)cccc2n1 [D156844]    strong effect

We now examine a further compound.
Prompt line: Please provide the recorded effect on CMV-driven Renilla luciferase activity for N#Cc1cc(F)cc(OCc2cccc3nc(N)nc(N)c23)c1 [PF-06738066] , tested on Renilla luciferase driven by the CMV promoter.
Response line: strong effect
